Reported values of IC50 for individual entries
- TARGET OR SYSTEM: CDK7/CycH/Mat1 (Homo sapiens, UniProt P50613)
- Construct: purchased Carna
- Sequence (P50613 whole entry): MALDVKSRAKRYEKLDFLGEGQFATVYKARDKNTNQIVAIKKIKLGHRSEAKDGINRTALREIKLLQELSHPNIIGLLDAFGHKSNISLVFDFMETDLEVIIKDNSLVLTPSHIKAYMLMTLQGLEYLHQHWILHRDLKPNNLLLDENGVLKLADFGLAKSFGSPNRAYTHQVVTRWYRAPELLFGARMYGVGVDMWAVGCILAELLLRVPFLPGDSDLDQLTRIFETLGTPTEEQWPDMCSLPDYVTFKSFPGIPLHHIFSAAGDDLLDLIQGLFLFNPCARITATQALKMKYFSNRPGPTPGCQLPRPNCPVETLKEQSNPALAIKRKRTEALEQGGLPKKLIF
- Sequence (P51946 whole entry partner): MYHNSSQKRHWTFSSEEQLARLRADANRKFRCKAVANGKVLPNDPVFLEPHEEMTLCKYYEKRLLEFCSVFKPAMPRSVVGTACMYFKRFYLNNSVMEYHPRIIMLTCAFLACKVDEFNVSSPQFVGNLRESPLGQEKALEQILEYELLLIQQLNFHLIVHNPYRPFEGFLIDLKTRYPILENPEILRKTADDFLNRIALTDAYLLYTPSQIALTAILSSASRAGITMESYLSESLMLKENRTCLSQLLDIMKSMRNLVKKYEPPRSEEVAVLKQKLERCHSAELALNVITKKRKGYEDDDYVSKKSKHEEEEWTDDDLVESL
- Sequence (P51948 whole entry partner): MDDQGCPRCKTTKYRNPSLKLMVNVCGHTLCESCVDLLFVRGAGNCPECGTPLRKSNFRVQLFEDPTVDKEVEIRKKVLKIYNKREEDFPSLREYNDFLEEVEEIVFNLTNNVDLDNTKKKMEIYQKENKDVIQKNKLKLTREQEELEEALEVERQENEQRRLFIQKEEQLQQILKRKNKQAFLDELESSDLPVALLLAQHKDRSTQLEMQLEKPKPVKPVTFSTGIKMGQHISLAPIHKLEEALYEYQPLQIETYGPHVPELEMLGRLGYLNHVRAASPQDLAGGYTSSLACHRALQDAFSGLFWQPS
- PROTOCOL DETAILS: CDK7 Enzymatic Activity Assay (Lance Kinase Activity Assay, FRET)
- Type: biochemical
- TEST CONTEXT: Table 5A; 25 μM ATP final; read-out: CDK7: IC50 [mM] for CDK7 inhibition (the above defined ranges apply)

Recorded IC50, per entry:
compound="COc1cccc([C@H](C)Nc2nc([S+]([O-])C3CCNCC3)nc3c(C(C)C)cnn23)c1 (some centres unmarked)" observed_result="< 0.01 µM"
compound="CC(C)c1cnn2c(NC(C)c3ccccc3-n3cccn3)nc(O[C@@H]3CCCNC3)nc12 (some centres unmarked)" observed_result="< 0.01 µM"
compound="CC(C)c1cnn2c(NC(C)c3ccccc3S(=O)(=O)N3CCCC3)nc(O[C@@H]3CCCNC3)nc12 (some centres unmarked)" observed_result="< 0.01 µM"

QUERY: Answer with the recorded IC50 for the compound listed here: COc1cccc([C@H](C)Nc2nc(N3CC(N4CCC(F)(F)C4)C3)nc3c(C(C)C)cnn23)c1
RESULT: > 0.1 µM

QUERY: Answer with the recorded IC50 for the compound listed here: CC(C)c1cnn2c(N[C@@H](C)c3ccccc3C(F)(F)F)nc(O[C@@H]3CCCNC3)nc12
RESULT: 0.01 to 0.03 µM
